Consider the following compounds and their measured IC50 readings.
Target: SUV39H2 (Homo sapiens (Human), UniProt Q9H5I1)
Sequence (Q9H5I1 whole entry): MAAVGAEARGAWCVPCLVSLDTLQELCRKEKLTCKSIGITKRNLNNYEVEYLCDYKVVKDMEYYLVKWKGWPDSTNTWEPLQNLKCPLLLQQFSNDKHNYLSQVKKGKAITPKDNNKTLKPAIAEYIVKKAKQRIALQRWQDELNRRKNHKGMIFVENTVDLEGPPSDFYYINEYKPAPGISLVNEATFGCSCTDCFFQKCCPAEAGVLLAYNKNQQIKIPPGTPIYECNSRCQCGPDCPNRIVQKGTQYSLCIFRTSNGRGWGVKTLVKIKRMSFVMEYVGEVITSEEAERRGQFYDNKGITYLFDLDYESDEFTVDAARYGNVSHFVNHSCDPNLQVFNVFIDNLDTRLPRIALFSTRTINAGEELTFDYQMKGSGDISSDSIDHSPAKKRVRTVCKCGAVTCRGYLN
Settings: read-out: IC50 (μM) Suv 39H2 assay; enzyme assay
quantity.kind: IC50

>>> result("CC[C@H](C)[C@H](NC)C(=O)Nc1ccn2cc(-c3cc(Cl)c(OC)cc3OC)nc2c1")
"0.0454 µM"
>>> result("COc1cc(OCCCN(C)C)c(-c2cn3ccc(N4CCC(N)CC4)cc3n2)cc1Cl")
"0.035 µM"
>>> result("COC(=O)N[C@H]1CC[C@H](Nc2ccn3cc(-c4cc(Cl)c(OC)cc4OC)nc3c2)CC1")
"0.00524 µM"
>>> result("COc1cc(OC)c(-c2cn3ccc(C4=CCN(C(C)=O)CC4)cc3n2)cc1Cl")
"0.0364 µM"

###

Test system: CCD-18Co
Assay: Cell-based assay, anti-proliferative activity (Cell Counting Kit-8, 72 hours)
Details: Homo sapiens; CCD-18Co cells, 72 hours, Cell Counting Kit-8; read-out: IC50 (μM) CCD-18Co
quantity.kind: IC50 (µM)

>>> result("CCOP(=O)(CCN1CCN(c2ccn3cc(-c4cc(Cl)c(OC)cc4OCCCN(C)C)nc3c2)CC1)OCC")
10
>>> result("COc1cc(OC)c(-c2cn3ccc(N4CC[C@H](NCc5ccc(F)cc5)C4)cc3n2)cc1Cl")
1.1
>>> result("COc1cc(OC)c(-c2cn3cc(Br)c(N4CCNCC4)cc3n2)cc1Cl")
4.3
>>> result("COc1cc(OCCN)c(-c2cn3ccc(N4CCN(S(=O)(=O)C5CC5)CC4)cc3n2)cc1Cl")
6.1
>>> result("CC[C@@H](C)[C@H](NC(=O)OC(C)(C)C)C(=O)Nc1ccn2cc(-c3cc(Cl)c(OC)cc3OC)nc2c1")
5.1
>>> result("COc1cc(OC)c(-c2cn3cc(Br)c(N4CCNCC4)nc3n2)cc1Cl")
3.1
>>> result("COc1cc(OC)c(-c2cn3ccc(NC(=O)C(N)CCCCN)cc3n2)cc1Cl (stereo in doubt)")
10
>>> result("COc1cc(OC)c(-c2cn3ccc(N4CCN(c5ccc(C#N)cn5)CC4)cc3n2)cc1Cl")
0.62

###

Parameter IC50: see the listing below.
Target: SUV39H2 (Homo sapiens (Human))
Settings: read-out: IC50 (μM) Suv 39H2 assay; enzyme assay
Structures can show the parent of a compound that is named as a salt.
quantity.kind: IC50 (µM)

>>> result("CNc1ccn2cc(-c3cc(Cl)c(OC)cc3OC)nc2c1 [Example 6, hydrobromide]")
0.00943
>>> result("COc1cc(OC)c(-c2cn3ccc(N4CCN(c5cccnc5)CC4)cc3n2)cc1Cl")
0.013
>>> result("COc1cc(OC)c(-c2cn3ccc(N4CCN(CCF)CC4)cc3n2)cc1Cl")
0.00666
>>> result("COC(=O)NCCNc1cn2cc(-c3cc(Cl)c(OC)cc3OC)nc2cc1OC")
0.0263
>>> result("CC[C@@H](C)[C@H](N)C(=O)Nc1ccn2cc(-c3cc(Cl)c(OC)cc3OC)nc2c1")
0.0639
>>> result("COc1cc(OC)c(-c2cn3ccc(C4=CCN(CCC(=O)O)CC4)cc3n2)cc1Cl")
0.0777
>>> result("COc1cc(OC)c(-c2cn3cc(NCCN)c(N4CCOCC4)cc3n2)cc1Cl")
0.00335
>>> result("COc1cc(OC)c(-c2cn3cc(NCCN)c(N4CCNCC4)nc3n2)cc1Cl")
0.00866
>>> result("COc1cc(OC)c(-c2cn3ccc(N4CCN(c5nccc(N)n5)CC4)cc3n2)cc1Cl")
0.00881
>>> result("COc1cc(OC)c(-c2cn3ccc(NC(=O)[C@@H](N)C(C)C)cc3n2)cc1Cl")
0.0423
>>> result("COc1cc(OC)c(-c2cn3cc(Br)c(N4CCNCC4)cc3n2)cc1Cl")
0.0416
>>> result("COc1cc(OCCCN(C)C)c(-c2cn3ccc(N4CCCN(S(C)(=O)=O)CC4)cc3n2)cc1Cl")
0.0145
>>> result("COc1cc(OCCCN(C)C)c(-c2cn3ccc(N4CCCNCC4)cc3n2)cc1Cl")
0.00207
>>> result("COc1cc(OC)c(-c2cn3ccc(N4CCN(CCO)CC4)nc3n2)cc1Cl")
0.0365
>>> result("COc1cc(OC)c(-c2cn3ccc(NCCN(C)C)cc3n2)cc1Cl")
0.0373
>>> result("COc1cc(OC)c(-c2cn3ccc(-c4ccc(C(=O)N5CCC(N)CC5)cc4)cc3n2)cc1Cl")
0.0586
>>> result("CCOP(=O)(CCN1CCCN(c2ccn3cc(-c4cc(Cl)c(OC)cc4OCCCN(C)C)nc3c2)CC1)OCC")
0.0106
